Molecular target: Corticotropin-releasing factor receptor 2/Corticotropin-releasing factor-binding protein (Homo sapiens, UniProt P24387+Q13324)
Sequence (Q13324 whole entry): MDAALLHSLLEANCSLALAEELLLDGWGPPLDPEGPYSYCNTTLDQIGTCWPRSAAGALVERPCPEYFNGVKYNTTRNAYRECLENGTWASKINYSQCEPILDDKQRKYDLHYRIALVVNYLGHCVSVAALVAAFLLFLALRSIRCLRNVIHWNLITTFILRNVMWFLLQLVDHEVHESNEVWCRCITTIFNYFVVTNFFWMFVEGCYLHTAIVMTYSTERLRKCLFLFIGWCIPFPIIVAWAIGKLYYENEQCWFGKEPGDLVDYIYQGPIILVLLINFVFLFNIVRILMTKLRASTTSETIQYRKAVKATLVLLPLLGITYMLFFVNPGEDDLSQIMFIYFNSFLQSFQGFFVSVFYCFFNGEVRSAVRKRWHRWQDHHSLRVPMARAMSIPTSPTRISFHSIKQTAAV
Sequence (P24387 whole entry): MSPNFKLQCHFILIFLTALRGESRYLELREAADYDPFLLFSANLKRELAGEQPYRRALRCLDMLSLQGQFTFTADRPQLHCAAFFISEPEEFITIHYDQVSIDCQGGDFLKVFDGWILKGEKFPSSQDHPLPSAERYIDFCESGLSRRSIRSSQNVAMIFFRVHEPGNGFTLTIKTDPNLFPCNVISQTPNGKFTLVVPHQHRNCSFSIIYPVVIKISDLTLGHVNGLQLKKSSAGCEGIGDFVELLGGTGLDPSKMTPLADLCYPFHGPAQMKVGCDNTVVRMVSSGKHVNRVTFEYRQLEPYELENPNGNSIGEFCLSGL
Assay: Dose Response confirmation of uHTS hits for small molecule antagonists of the CRF-binding protein and CRF-R2 receptor complex.
Format: functional
Conditions: read-out: IC50_Mean
The source made the active and inactive calls.
Labels: active, inactive

molecule	discrete_label
CC(=O)c1cc(C#N)c(Oc2ccc(Cl)cc2Cl)nc1C	inactive
COc1cccc(CN2CC(C(=O)NCc3ccc(Cl)s3)CCC2=O)c1 (stereo not given)	inactive
CCN(CC)Cc1c(C)nc2ccc(NC(C)=O)cc2c1O	inactive
CC(C)(C)OC(=O)N1CCC(c2cc(O)n3ncc(C(=O)NC4CCCC4)c3n2)CC1	active
O=S(=O)(c1cccc2nsnc12)N1CCc2ccccc2C1	inactive
COC(=O)c1sc(-c2ccc(C(C)(C)C)cc2)cc1NC(=O)COCC(=O)O	active
O=C(C[C@H]1C[C@@H]2c3cc(NS(=O)(=O)c4ccccc4)ccc3O[C@@H]2[C@H](CO)O1)N1CCOCC1	inactive
COc1cccc(CN2CCN(Cc3cc(OC)c(OC)cc3[N+](=O)[O-])CC2)c1.O=C(O)C(=O)O	inactive
COc1ccc(CN2CCC(CO)(CCOc3ccccc3)CC2)cc1C	inactive
CN(NC(=O)Nc1ccccc1)c1cnn(C)c(=O)c1Cl	inactive

* * *

biological target: High affinity choline transporter 1 (Homo sapiens, UniProt Q9GZV3); test: CHT inhibitors, dose response, cell-based, 5-point CRC, membrane potential dye (AID 504840); type: functional
Sequence (Q9GZV3 whole entry): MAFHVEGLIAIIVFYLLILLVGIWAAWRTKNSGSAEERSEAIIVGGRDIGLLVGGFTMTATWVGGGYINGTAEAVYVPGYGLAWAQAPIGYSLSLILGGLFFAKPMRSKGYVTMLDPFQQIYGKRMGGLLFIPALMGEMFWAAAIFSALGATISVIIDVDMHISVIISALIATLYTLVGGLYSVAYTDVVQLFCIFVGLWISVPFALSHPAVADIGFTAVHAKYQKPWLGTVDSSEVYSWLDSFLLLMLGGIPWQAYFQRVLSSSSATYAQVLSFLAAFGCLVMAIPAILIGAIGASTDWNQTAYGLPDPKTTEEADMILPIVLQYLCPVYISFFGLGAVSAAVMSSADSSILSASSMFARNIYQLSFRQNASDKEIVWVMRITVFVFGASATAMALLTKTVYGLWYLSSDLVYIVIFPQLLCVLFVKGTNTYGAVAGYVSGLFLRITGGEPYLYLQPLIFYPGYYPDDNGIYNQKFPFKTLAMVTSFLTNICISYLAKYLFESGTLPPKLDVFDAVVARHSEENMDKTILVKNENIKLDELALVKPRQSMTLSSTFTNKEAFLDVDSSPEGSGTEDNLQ
The source made the active and inactive calls.
outcome_measure: IC50

compound	measured_value
CCN1CCN(c2ncnc3scc(-c4ccc(C)cc4)c23)CC1	2.09 µM (active)
CN1CCCC(CC2Oc3ccccc3Sc3ccccc32)C1 (stereo not drawn)	15.8 µM (active)
Cn1c(-c2ccccc2O)cc2ccccc21	13.2 µM (active)
CCCc1nnc(NC(=O)c2nc(S(=O)(=O)Cc3cccc(C)c3)ncc2Cl)s1	3.9 µM (active)
N#C/C(=C(/O)c1ccccc1F)c1nc2cc(C(F)(F)F)ccc2s1	10 µM (active)
Cc1ccc[n+](CC(=O)c2ccc(Br)cc2)c1C	13.8 µM (active)
CCCc1cc2c(=O)c(-c3ccccn3)c(C)oc2cc1O	12.3 µM (active)
O=[N+]([O-])c1ccc(S(=O)(=O)Nc2nc(-c3ccccc3)cs2)cc1	4.57 µM (active)

Origin of measurements: ChEMBL document CHEMBL1201862
